molecular target: recombinant 15-PGDH protein (Homo sapiens (Human), UniProt P15428); test: Inhibition of enzymatic activity of recombinant 15-PGDH in vitro; type: biochemical; details: read-out: Enzyme inhibition % ([…]), recombinant 15-PGDH, […] compound; read-out: Enzyme inhibition % (2.5 μM)
Sequence (P15428 whole entry): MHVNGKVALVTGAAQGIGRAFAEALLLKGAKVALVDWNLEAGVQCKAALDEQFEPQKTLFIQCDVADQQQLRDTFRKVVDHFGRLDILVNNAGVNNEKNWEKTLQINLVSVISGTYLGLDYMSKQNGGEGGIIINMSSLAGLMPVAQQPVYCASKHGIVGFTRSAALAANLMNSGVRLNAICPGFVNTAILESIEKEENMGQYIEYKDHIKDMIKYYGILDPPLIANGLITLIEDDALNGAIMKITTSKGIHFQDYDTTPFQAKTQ
inhibition at […] values for the compounds below.
Give just the number in %; leave the unit off.

{"mol-smiles": "COc1ccc(S(=O)(=O)N(CC(=O)N2CCOCC2)c2cc(OC)ccc2OC)cc1", "target-entity": "recombinant 15-PGDH protein (Homo sapiens (Human), UniProt P15428)", "inhibition at […], %": -7.08}
{"mol-smiles": "COc1ccc(OC)c(N(CC(=O)OC(C)(C)C)S(=O)(=O)c2ccccc2)c1", "target-entity": "recombinant 15-PGDH protein (Homo sapiens (Human), UniProt P15428)", "inhibition at […], %": 3.92}

input: I have this compound here, COc1ccc(S(=O)(=O)N(CC(=O)Nc2ccncc2)c2cc(OC)ccc2OC)cc1 , and I need its recorded inhibition at […].
output: 81.3

input: I have this compound here, COc1ccc(S(=O)(=O)N(CC(=O)N2CCCCC2)c2cc(OC)ccc2OC)cc1 , and I need its recorded inhibition at […].
output: -0.86

----------
activation at […] values for the compounds below.
system: LS174T reporter cell line expressing a 15-PGDH luciferase fusion construct; experiment: 15-PGDH-luciferase fusion gene reporter induction, LS174T cell line; format: cell-based; conditions: Homo sapiens, read-out: LS174T reporter activity ([…]), Table 17, […], read-out: LS174T reporter activity (2.5 μM)
Give just the number in %; leave the unit off.

For orientation, consider the following solved cases.
{"mol-smiles": "COc1ccc(S(=O)(=O)N(CC(=O)Nc2ccc(Br)cc2)c2cc(Cl)ccc2OC)cc1OC", "activation at […] (%)": 3.86}
{"mol-smiles": "COc1ccc(S(=O)(=O)N(CC(=O)Nc2ccccc2Br)c2cc(Cl)ccc2OC)cc1OC", "activation at […] (%)": 5.74}
{"mol-smiles": "COc1ccc(S(=O)(=O)N(CC(=O)Nc2cccc(Br)c2)c2cc(Cl)ccc2OC)cc1OC", "activation at […] (%)": 8.66}

input: I have this compound here, COc1ccc(N(CC(=O)Nc2ccccc2Br)S(=O)(=O)c2ccccc2[N+](=O)[O-])c(OC)c1 , and I need its recorded activation at […].
output: 9.9

input: I have this compound here, COc1ccc(N(CC(=O)Nc2ccccc2Br)S(=O)(=O)c2ccc(NC(C)=O)cc2)cc1 , and I need its recorded activation at […].
output: -2.11

input: I have this compound here, COc1ccc(S(=O)(=O)N(CC(=O)Nc2cccc(N(C)S(C)(=O)=O)c2)c2cc(Cl)ccc2OC)cc1OC , and I need its recorded activation at […].
output: 4.32

----------
molecular target: recombinant 15-PGDH protein (Homo sapiens (Human), UniProt P15428); assay: Inhibition of enzymatic activity of recombinant 15-PGDH in vitro; type: biochemical; details: read-out: Enzyme inhibition % ([…]), recombinant 15-PGDH, […] compound; read-out: Enzyme inhibition % (7.5 μM);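 note: activity of recombinant human 15-PGDH assayed in vitro using PGE2 as the substrate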
metric: inhibition at […] (%)
Give just the number in %; leave the unit off.

For orientation, consider the following solved cases.
{"mol-smiles": "COc1ccc(OC)c(N(CC(=O)Nc2cccnc2)S(=O)(=O)c2ccccc2F)c1", "target-entity": "recombinant 15-PGDH protein (Homo sapiens (Human), UniProt P15428)", "inhibition at […] (%)": 59.2}
{"mol-smiles": "COc1ccc(OC)c(N(CC(=O)Nc2cnccc2C)S(=O)(=O)c2ccccc2)c1", "target-entity": "recombinant 15-PGDH protein (Homo sapiens (Human), UniProt P15428)", "inhibition at […] (%)": 0.94}
{"mol-smiles": "COc1ccc(OC)c(N(CC(=O)Nc2ccc(C)nc2)[S@SP3](=O)(=O)c2ccccc2)c1", "target-entity": "recombinant 15-PGDH protein (Homo sapiens (Human), UniProt P15428)", "inhibition at […] (%)": 33.7}
{"mol-smiles": "COc1ccc(OC)c(N(CC(=O)N2CCCC2=O)S(=O)(=O)c2ccccc2)c1", "target-entity": "recombinant 15-PGDH protein (Homo sapiens (Human), UniProt P15428)", "inhibition at […] (%)": 59.2}
{"mol-smiles": "COc1ccc(OC)c(N(CC(=O)Nc2cnccn2)S(=O)(=O)c2ccccc2)c1", "target-entity": "recombinant 15-PGDH protein (Homo sapiens (Human), UniProt P15428)", "inhibition at […] (%)": 64.9}
{"mol-smiles": "COc1ccc(OC)c(N(CC(=O)Nc2ccc(Cl)nc2)S(=O)(=O)c2ccccc2)c1", "target-entity": "recombinant 15-PGDH protein (Homo sapiens (Human), UniProt P15428)", "inhibition at […] (%)": 48}
{"mol-smiles": "COc1ccc(OC)c(N(CC(=O)Nc2cncc(Cl)c2)S(=O)(=O)c2ccccc2)c1", "target-entity": "recombinant 15-PGDH protein (Homo sapiens (Human), UniProt P15428)", "inhibition at […] (%)": 47.2}
{"mol-smiles": "COc1ccc(OC)c(N(CC(=O)N(C)c2cccnc2)S(=O)(=O)c2ccccc2)c1", "target-entity": "recombinant 15-PGDH protein (Homo sapiens (Human), UniProt P15428)", "inhibition at […] (%)": 34.2}

input: I have this compound here, COc1ccc(OC)c(N(CC(=O)Nc2cccnc2C)S(=O)(=O)c2ccccc2)c1 , and I need its recorded inhibition at […].
output: 0.78

input: I have this compound here, COc1ccc(OC)c(N(CC(=O)N2CCCCC2)S(=O)(=O)c2ccccc2)c1 , and I need its recorded inhibition at […].
output: 35.2

input: I have this compound here, COc1ccc(OC)c(N(CC(=O)OC(C)C)S(=O)(=O)c2ccccc2)c1 , and I need its recorded inhibition at […].
output: -13.2

input: I have this compound here, COc1ccc(OC)c(N(CC(=O)Nc2ccnc(F)c2)S(=O)(=O)c2ccccc2)c1 , and I need its recorded inhibition at […].
output: 52

input: I have this compound here, COc1ccc(OC)c(N(CC(=O)N2CCCC2)S(=O)(=O)c2ccccc2)c1 , and I need its recorded inhibition at […].
output: 27.7
